target: GDP-bound KRAS wild-type protein (Homo sapiens, UniProt P01116); test: Binding to KRAS by surface plasmon resonance (SPR), Single Cycle Kinetics; conditions: SPR, Single Cycle Kinetics, GDP-bound KRAS wild-type protein; read-out: KRAS KD
Sequence (P01116 whole entry): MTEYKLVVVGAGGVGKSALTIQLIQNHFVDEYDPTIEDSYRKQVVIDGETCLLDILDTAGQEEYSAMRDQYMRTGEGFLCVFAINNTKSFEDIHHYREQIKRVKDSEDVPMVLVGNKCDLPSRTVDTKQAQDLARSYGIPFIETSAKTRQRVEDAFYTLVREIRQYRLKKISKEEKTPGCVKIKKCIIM
endpoint name: pKd
A value of pKd is the negative decimal logarithm of a concentration given in moles per litre.

CCO[C@@H]1C[C@H]2C(=O)NC3(CCC3)C(=O)N(C)[C@@H](C3CCCC3)C(=O)N(C)[C@H](C(=O)N3CCOCC3)CC(=O)N(C)[C@@H](CC(C)C)C(=O)N[C@@H]([C@@H](C)CC)C(=O)N(C)CC(=O)N(C)[C@H]3CCCCCN(C3=O)[C@@H](Cc3ccc(F)cc3OC)C(=O)N(C)CC(=O)N[C@@H](CCc3cc(F)c(C(F)(F)F)c(F)c3)C(=O)N2C1; 9.09
C#CC[C@H]1C(=O)N[C@@H]([C@@H](C)CC)C(=O)N(C)CC(=O)N(C)[C@H]2C/C=C\CCN(C2=O)[C@@H](Cc2ccc(C(F)(F)F)cc2)C(=O)N(C)CC(=O)N[C@@H](CCc2ccc(C(F)(F)F)c(OC)c2)C(=O)N2C[C@H](OCC)C[C@H]2C(=O)NC2(CCC2)C(=O)N(C)[C@@H](C2CCCC2)C(=O)N(C)[C@H](C(=O)N(C)CCC)CC(=O)N1C; 10.03
CCO[C@@H]1C[C@H]2C(=O)NC3(CC(C)(C)C3)C(=O)N(CC)[C@@H](C3CCCC3)C(=O)N(C)[C@H](C(=O)N(C)C)CC(=O)N(C)[C@@H](CC)C(=O)N[C@@H]([C@@H](C)CC)C(=O)N(C)CC(=O)N(C)[C@H]3C/C=C\CCN(C3=O)[C@@H](Cc3ccc(C(F)(F)F)cc3)C(=O)N(C)CC(=O)N[C@@H](CCc3cc(F)c(C(F)(F)F)c(F)c3)C(=O)N2C1; 9.43
CCCOC[C@H]1C(=O)N[C@@H]([C@@H](C)CC)C(=O)N2CCC[C@H]2C(=O)N(C)[C@H]2C/C=C\CCN(C2=O)[C@@H](CC2CCC(F)(F)CC2)C(=O)N(C)CC(=O)N[C@@H](CCc2ccc(C(F)(F)F)c(OC)c2)C(=O)N2C[C@H](OCC)C[C@H]2C(=O)N(C)C2(CCC2)C(=O)N(C)[C@@H](C2CCCC2)C(=O)N(C)[C@H](C(=O)N(C)C)CC(=O)N1C; 8.92
CCC[C@H]1C(=O)N[C@@H]([C@@H](C)CC)C(=O)N(C2CC2)CC(=O)N(C)[C@H]2C/C=C\CCN(C2=O)[C@@H](CC2CCC(F)(F)CC2)C(=O)N(C)CC(=O)N[C@@H](CCc2ccc(C(F)(F)F)c(OC)c2)C(=O)N2C[C@@H](C)C[C@H]2C(=O)N(C)C2(CCC2)C(=O)N(C)[C@@H](C2CCCC2)C(=O)N(C)[C@H](C(=O)N(C)C)CC(=O)N1C; 9.06

Next item in the queue.
Notebook: CCCN(C)C(=O)[C@@H]1CC(=O)N(C)[C@@H](COCC)C(=O)N[C@@H]([C@@H](C)CC)C(=O)N(C)CC(=O)N(C)[C@H]2C/C=C\CCN(C2=O)[C@@H](Cc2ccc(C(F)(F)F)cc2)C(=O)N(C)CC(=O)N[C@@H](CCc2cc(F)c(C(F)(F)F)c(F)c2)C(=O)N2C[C@@H](C)C[C@H]2C(=O)NC2(CC(C)(C)C2)C(=O)N(C)[C@@H](C2CCCC2)C(=O)N1C , pKd read as 9.72
